- measurement target: T1, Human VE-PTP (HPTP-β) containing first eight FN3 repeats with C-terminal His6 tag (Human ½ VE-PTP ECD) (human, UniProt P23467 23-820)
- T1 construct: Produced in HEK293 cells and purified by the His tag; it was not cut off; also called Human Beta ½ ECD
- T1 sequence: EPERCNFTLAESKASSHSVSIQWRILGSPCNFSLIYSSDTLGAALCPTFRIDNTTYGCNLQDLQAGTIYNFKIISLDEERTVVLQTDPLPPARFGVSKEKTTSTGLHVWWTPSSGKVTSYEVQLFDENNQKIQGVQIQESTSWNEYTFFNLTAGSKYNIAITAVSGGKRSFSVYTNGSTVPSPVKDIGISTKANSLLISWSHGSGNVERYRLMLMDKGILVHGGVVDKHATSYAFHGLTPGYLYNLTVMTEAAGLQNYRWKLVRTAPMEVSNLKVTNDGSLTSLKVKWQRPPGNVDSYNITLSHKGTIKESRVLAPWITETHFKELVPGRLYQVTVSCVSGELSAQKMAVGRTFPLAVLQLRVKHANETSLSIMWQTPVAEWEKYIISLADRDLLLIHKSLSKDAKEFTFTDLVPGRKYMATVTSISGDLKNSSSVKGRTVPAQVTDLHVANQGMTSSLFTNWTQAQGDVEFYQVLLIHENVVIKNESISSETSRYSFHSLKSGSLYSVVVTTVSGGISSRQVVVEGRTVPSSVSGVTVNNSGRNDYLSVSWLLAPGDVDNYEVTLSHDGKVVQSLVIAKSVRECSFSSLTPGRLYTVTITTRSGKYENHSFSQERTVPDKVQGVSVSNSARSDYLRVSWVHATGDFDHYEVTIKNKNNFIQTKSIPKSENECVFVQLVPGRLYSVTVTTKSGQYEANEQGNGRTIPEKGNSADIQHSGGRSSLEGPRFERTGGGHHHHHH
- assay notes: SPR (Biacore 3000), antibody captured on anti-human IgG, antigen as analyte 100 nM (single concentration)
Documented Kd across a set of binders
Express your answer as a number followed by its unit.

[
  {
    "binder": "mouse/human chimeric antibody HC0LC0 (antibody, human IgG4 S228P, kappa, V domains shown, Murine variable domains of R15E6 on human IgG4 (S228P) and kappa constant domains, expressed in CHO cells; also called VH0-VL0) VH: EVQLVETGGGLVQPKGSMKLSCAASGFTFNANAMNWIRQAPGKGLEWVARIRTKSNNYATYYAGSVKDRFTISRDDAQNMLYLQMNDLKTEDTAMYYCVRDYYGSSAWITYWGQGTLVTVSA VL: DIVMTQSHKFMSTSVGDRVSITCKASQHVGTAVAWYQQKPDQSPKQLIYWASTRHTGVPDRFTGSGSGTDFTLTISNVQSEDLADYFCQQYSSYPFTFGSGTKLEIKR",
    "Kd": "6.22 nM"
  }
]

# input binder: humanized R15E6 variant HC1LC4 (antibody, human IgG4 S228P, kappa, V domains shown, Human IgG4 (S228P) / kappa, expressed in CHO cells; Signal peptides left out by range; also called VH1-VL4) VH: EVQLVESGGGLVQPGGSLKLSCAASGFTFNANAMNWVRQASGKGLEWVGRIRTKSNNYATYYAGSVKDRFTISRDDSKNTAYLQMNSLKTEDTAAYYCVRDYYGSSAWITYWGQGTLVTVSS VL: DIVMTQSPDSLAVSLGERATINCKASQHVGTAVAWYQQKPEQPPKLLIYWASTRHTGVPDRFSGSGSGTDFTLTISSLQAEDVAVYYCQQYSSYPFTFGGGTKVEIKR ; wanted: its Kd
4.42 nM
